test: Primary qHTS for small molecule stabilizers of the endoplasmic reticulum resident proteome: Secreted ER Calcium Modulated Protein (SERCaMP) assay (AID 1508630); settings: SH-SY5Y GLuc-SERCaMP (Gaussia luciferase released on ER calcium loss) secretion, thapsigargin, luminescence; series mostly up to 38.4 µM; note: % is set by controls: 0 for no effect and ±100 for the full control effect
Inconclusive results are not listed. Activity calls are given as the source filed them. Calls come from the whole dose curve; as a rule, active = well fitted inhibition curve with a large enough effect; inconclusive = small, poorly fitted or top-dose-only effect; inactive = no such curve, though single readings can be large or run the other way.
quantity.name: activity change, negative = inhibition

>>> assay_value("CN1Cc2c(N)cccc2C(c2ccccc2)C1 (stereo unspecified)")
"inactive"
>>> assay_value("O=C(O)CC/C=C\\CC[C@H]1[C@@H](N2CCCCC2)[C@@H](O)C[C@@H]1OCc1ccc(-c2ccccc2)cc1")
"inactive"
>>> assay_value("CCOC(=O)C1=CC2(CC)CCCN3CCc4c(n1c1ccccc41)C32 (stereo unspecified)")
"inactive"
>>> assay_value("CCCCC/C=C\\C/C=C\\CCCCCCCC(=O)O")
"-23.8% [at 3.88 µM] (inactive)"
>>> assay_value("CC1=C(/C=C/C(C)=C/C=C/C(C)=C/CO)C(C)(C)CCC1")
"inactive"
>>> assay_value("CC(C)N=c1cc2n(-c3ccc(Cl)cc3)c3ccccc3nc-2cc1Nc1ccc(Cl)cc1")
"inactive"

----------
System: AS120
Assay: qHTS profiling for inhibitors of Plasmodium falciparum proliferation (AID 504749); note: nearly all actives have a fitted effect of over 60% in size
Settings: P. falciparum in erythrocytes, SYBR Green DNA, 72 h; series mostly up to 28.7 µM
Procedure: NIH National Institute of Allergy and Infectious Diseases [NIAID] NIH Chemical Genomics Center [NCGC] […] Because mature erythrocytes lack DNA, only Plasmodium-derived DNA is detected. NCGC Assay Protocol Summary: The SYBR Green viability assay was adapted from a method described previously (Plouffe et al., 2008). […] The following morning, fluorescence intensity at 485(14) nm excitation and 535(25) nm emission wavelengths was measured on an EnVision (Perkin Elmer) plate reader. […]
Records with an inconclusive call do not appear. The source made the active and inactive calls. Calls come from the whole dose curve; as a rule, active = well fitted inhibition curve with a large enough effect; inconclusive = small, poorly fitted or top-dose-only effect; inactive = flat fitted curve, though single readings scatter.
Outcomes: active, inactive

>>> classification("CC(=O)Oc1c(C)cc(OCC(O)CNC(C)C)c(C)c1C (stereo unspecified)")
"inactive"
>>> classification("CCN(CC)Cc1cc(Nc2ccnc3cc(Cl)ccc23)ccc1O")
"active"
>>> classification("Cc1ccccc1")
"inactive"
>>> classification("CC(NNC(=O)c1ccccc1)c1ccccc1 (stereo unspecified)")
"inactive"
>>> classification("CCCC(=O)O[C@]1(C(=O)CCl)[C@H](C)C[C@@H]2[C@H]3CCC4=CC(=O)C=C[C@]4(C)[C@@]3(F)C(=O)C[C@@]21C")
"active"
>>> classification("O=C1C(=O)c2ncccc2-c2cccnc21")
"active"

----------
test system: NIH3T3; assay: Cytotoxic Profiling of Annotated Libraries Using Quantitative High-Throughput Screening (AID 1296008); conditions: Five cell lines viability, CellTiter-Glo ATP luminescence, 48-72 h; hits give low values; note: % is set by controls: 0 for no effect and ±100 for the full control effect; nearly all actives have a fitted effect of over 60% in size
Records with an inconclusive call do not appear.
Below: a set of entries, each annotated with reported max response.
quantity.name: max response (%)

>>> assay_value("COc1cc(C2OCC3C(c4ccc(OC5OC(CO)C(O)C(O)C5O)c(OC)c4)OCC23)ccc1O (configuration not stated)")
-0.3
>>> assay_value("CCC(C)(O)C(O)C(=O)OCc1ccc(O[C@@H]2O[C@H](CO)[C@@H](O)[C@H](O)[C@H]2O)cc1 (some centres not stated)")
-0.787
>>> assay_value("CO[C@H]1C=C2C(CC[C@H](O[C@@H]3O[C@H](CO)[C@@H](O)[C@@H](O)[C@H]3O)C2(C)C)[C@]2(C)CC[C@]3(C)C([C@H](C)C(O)C(C=C(C)C)O[C@@H]4O[C@H](CO)[C@@H](O)[C@@H](O)[C@H]4O)CC[C@@]3(C)C12 (some centres not stated)")
3.68
>>> assay_value("C[C@@H]1CC[C@]2(C)C(C[C@@H](O)[C@H](O)[C@]23CO3)[C@@]1(C)CCc1ccoc1 (some centres not stated)")
-3.46
>>> assay_value("OCc1ccccc1O[C@@H]1O[C@H](CO)[C@@H](O)[C@H](O)[C@H]1O")
-2.31
>>> assay_value("CCn1c2ccccc2c2cc(CNC)ccc21")
-5.49
>>> assay_value("CC1(C)CCC2(C(=O)OC3OC(COC4OC(CO)C(O)C(O)C4O)C(O)C(O)C3O)CCC3(C)C(=CCC4C5(C)CCC(O)C(C)(C(=O)O)C5CCC43C)C2C1O (configuration not stated)")
4.9
>>> assay_value("C[C@@H]1O[C@@H](O[C@H]2[C@H](O[C@H]3CC[C@@]4(C)C(CC[C@]5(C)C4CC=C4C6CC(C)(C)CC[C@]6(C(=O)O[C@@H]6O[C@H](CO[C@@H]7O[C@H](CO)[C@@H](O[C@@H]8O[C@@H](C)[C@H](O)[C@@H](O)[C@H]8O)[C@H](O)[C@H]7O)[C@@H](O)[C@H](O)[C@H]6O)CC[C@]45C)[C@]3(C)CO)OC[C@H](O)[C@@H]2O)[C@H](O)[C@H](O)[C@H]1O (some centres not stated)")
-6.66
>>> assay_value("CC1(C)CCC(C)(C)c2cc3c(cc21)Sc1ccccc1N=C3c1ccc(C(=O)O)cc1")
3.93
>>> assay_value("C/C=C(\\C)C(=O)O[C@H]1[C@H](O)[C@]2(COC(C)=O)[C@H](O)C[C@]3(C)C(=CCC4[C@@]5(C)CC[C@H](O[C@@H]6O[C@H](C(=O)O)[C@@H](O[C@@H]7O[C@H](CO)[C@@H](O)[C@H](O)[C@H]7O)[C@H](O)[C@H]6O[C@@H]6O[C@H](CO)[C@@H](O)[C@H](O)[C@H]6O)[C@](C)(CO)C5CC[C@]43C)[C@@H]2CC1(C)C (some centres not stated)")
2.26
>>> assay_value("COc1cc(C/C(=C/NC(C)=O)N(CC(=O)Cc2ccccc2)C(C)=O)cc2c1OCO2")
2.9
>>> assay_value("CC/C=C/CC1=C(CCCCCCCC(=O)O)CCC1=O")
-0.116

----------
tested on: 7G8; assay: qHTS profiling for inhibitors of Plasmodium falciparum proliferation (AID 504749); note: nearly all actives have a fitted effect of over 60% in size; note: potency is the fitted concentration of half-maximal effect; settings: P. falciparum in erythrocytes, SYBR Green DNA, 72 h; series mostly up to 28.7 µM
Inconclusive results are not listed. Active and inactive are the calls of the source. Calls come from the whole dose curve; as a rule, active = well fitted inhibition curve with a large enough effect; inconclusive = small, poorly fitted or top-dose-only effect; inactive = flat fitted curve, though single readings scatter. Peptide text beside a SMILES is read from it.
quantity.name: Potency

>>> assay_value("COC(=O)[C@H]1[C@H]2CC3c4[nH]c5ccccc5c4CCN3C[C@@H]2CC[C@@H]1O (some centres not stated)")
"inactive"
>>> assay_value("CC[C@@]1(O)C(=O)OCc2c1cc1n(c2=O)Cc2cc3c([N+](=O)[O-])cccc3nc2-1")
"5.01 µM (active)"
>>> assay_value("Cc1c(C)c2c(c(C)c1O)CC[C@@](C)(CCC[C@@H](C)CCC[C@@H](C)CCCC(C)C)O2")
"inactive"
>>> assay_value("Cc1ccccc1OCC(O)CNCCOc1ccc(C(N)=O)cc1 (configuration not stated)")
"inactive"
>>> assay_value("CC(=O)N[C@@H](CC(=O)O)C(=O)N[C@@H](CCC(=O)O)C(=O)O (Ac-Asp-Glu-OH)")
"inactive"
>>> assay_value("CCNC(=O)[C@@H]1CCCN1C(=O)[C@H](CCCN=C(N)N)NC(=O)[C@H](CC(C)C)NC(=O)[C@@H](Cc1c[nH]c2ccccc12)NC(=O)[C@H](Cc1ccc(O)cc1)NC(=O)[C@H](CO)NC(=O)[C@H](Cc1c[nH]c2ccccc12)NC(=O)[C@H](Cc1cnc[nH]1)NC(=O)[C@@H]1CCC(=O)N1")
"1.12 µM (active)"
>>> assay_value("CCOC(=O)C1=CC2(CC)CCCN3CCc4c(n1c1ccccc41)C32 (configuration not stated)")
"5.62 µM (active)"

----------
tested on: Nanoluciferase (engineered Oplophorus gracilirostris luciferase); experiment: Primary Nanoluciferase (NLuc) qHTS assay for identification of artifact compounds. (AID 1845222); conditions: NLuc-conditioned medium, Nano-Glo luminescence, 5 min; series mostly up to 54.1 µM;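 note: NLuc secreted into diluted conditioned medium of S16 cells; 0% = DMSO and -100% = no enzyme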
Calls of active or inactive are those of the source. The call rests on the fitted dose curve; in most records, active means well fitted inhibition curve with a large enough effect; inconclusive means small, poorly fitted or top-dose-only effect; inactive means flat fitted curve, though single readings scatter.
quantity.name: activity, negative = inhibition

>>> assay_value("C[C@@H]1O[C@@H](O[C@H]2[C@H](O[C@H]3[C@H](O[C@H]4CC[C@@]5(C)C(CC[C@]6(C)C5CC=C5[C@@H]7CC(C)(C(=O)O)C[C@@H](O)[C@]7(C)CC[C@]56C)[C@@]4(C)CO)O[C@H](C(=O)O)[C@@H](O)[C@@H]3O)O[C@H](CO)[C@H](O)[C@@H]2O)[C@H](O)[C@H](O)[C@H]1O (some centres not stated)")
"-2.21% [at 11.6 µM] (inactive)"
>>> assay_value("O=C(/C=C/c1ccc(O)cc1)OCC1=C[C@@H](O)[C@@H]2C=CO[C@@H](O[C@@H]3O[C@H](CO)[C@@H](O)[C@H](O)[C@H]3O)[C@H]12")
"inactive"
>>> assay_value("COc1cccc(-c2ccc([C@@H](Oc3cc(-c4ccc(C[C@H](N)C(=O)O)cc4)nc(N)n3)C(F)(F)F)cc2)c1")
"inactive"
>>> assay_value("COc1cc([C@H]2OC[C@@H]3[C@@H](c4ccc(O[C@@H]5O[C@H](CO)[C@@H](O)[C@H](O)[C@H]5O)c(OC)c4)OC[C@]23O)ccc1O")
"inactive"
>>> assay_value("COc1cc([C@@H]2Oc3c(OC)cc(CCCO)cc3[C@@H]2CO[C@@H]2O[C@H](CO)[C@@H](O)[C@H](O)[C@H]2O)ccc1O")
"inactive"
>>> assay_value("CC1=CCC2C(C)(CO)CCCC2(C)C1CC12OC1C(O)C(CO)=CC2O (configuration not stated)")
"inactive"
>>> assay_value("COC(=O)[C@H](OC(C)=O)[C@H]1C(C)(C)C(=O)[C@H]2CC3=C4CC(=O)O[C@@H](c5ccoc5)[C@]4(C)CCC3[C@@]1(C)C2=O (some centres not stated)")
"inactive"
>>> assay_value("CC1(CO)CC2C(O)C(=O)C3(CO)CC3(C)C2C1 (configuration not stated)")
"inactive"
>>> assay_value("COC(=O)[C@@]1(C)CC[C@]2(C(=O)O[C@@H]3O[C@H](CO)[C@@H](O)[C@H](O)[C@H]3O)CC[C@]3(C)C(=CCC4[C@@]5(C)CC[C@H](O[C@@H]6O[C@H](C(=O)O)[C@@H](O)[C@H](O)[C@H]6O)C(C)(C)C5CC[C@]43C)[C@@H]2C1 (some centres not stated)")
"-2.3% [at 11.6 µM] (inactive)"
>>> assay_value("O=C(O)c1cc(O[C@@H]2O[C@H](CO[C@@H]3OC[C@@H](O)[C@H](O)[C@H]3O)[C@@H](O)[C@H](O)[C@H]2O)c2ccccc2c1O")
"inactive"
>>> assay_value("CC1CCC2(C(=O)OC3OC(COC4OC(CO)C(O)C(O)C4O)C(O)C(O)C3O)CCC3(C)C(=CCC4C5(C)CCC(O)C(C)(C(=O)O)C5CCC43C)C2C1(C)O (configuration not stated)")
"3.18% [at 11.6 µM] (inactive)"
>>> assay_value("Cc1[nH]cnc1C1CCN(c2nc3cccc4c3n2CCC4=O)CC1")
"inactive"
